Cited source: the supplement of paper PMC4466140

Exercise: for every item that follows, state its recorded SPOT peptide array binding signal intensity.
- system: ScRvs167
- test description: SPOT peptide array binding signal intensity (averaged, normalized) (arbitrary units (background-subtracted, floor 0; scale differs between SH3 domains)); higher = stronger binding of the SH3 domain to the peptide
Numbers only.

Sample records with SPOT peptide array binding signal intensity:
{"columns": ["binder", "numeric value"],
 "data": [
  ["RPVPRRPSQPLNTLS", 2300],
  ["TKPTPPPKPSHLKPK", 4.17],
  ["LKQRFFLMFPKSIIW", 14.5],
  ["ALRRRLPVTRSKINW", 155],
  ["NSMRPPLLIPAATTK", 53.7]
]}

Memo: SSAAPPPPPRRATPE , reported SPOT peptide array binding signal intensity: 1890
